Reference for the values: the supplement of paper PMC10883282

Test system: KHOS-NP
Assay notes: relative viability vs DMSO control (72 h) (fraction); higher = more viable cells
Measurement setup: 0.01372 µM
# relative viability annotations
Readout: relative viability

[[record]]
molecule = "C[C@@H](Oc1cc(-c2cnn(C3CCNCC3)c2)cnc1N)c1c(Cl)ccc(F)c1Cl [Crizotinib]"
test_target = "KHOS-NP"
experimental_result = 1.1

[[record]]
molecule = "CCCCCCCCCCCCCCCCCCOP(=O)([O-])OC1CC[N+](C)(C)CC1 [Perifosine]"
test_target = "KHOS-NP"
experimental_result = 1.1

[[record]]
molecule = "C[C@H]1Oc2cc(cnc2N)-c2c(nn(C)c2C#N)CN(C)C(=O)c2ccc(F)cc21 [Lorlatinib]"
test_target = "KHOS-NP"
experimental_result = 1.07

[[record]]
molecule = "C1=N/C2=N/c3ccc(OCCN4CCCC4)c(c3)COC/C=C/COCc3cccc(c3)C(=C1)N2 [Pacritinib]"
test_target = "KHOS-NP"
experimental_result = 1.12

[[record]]
molecule = "C[C@@H]1COC(Nc2ccc3ncnc(Nc4ccc(OCc5nccs5)c(Cl)c4)c3c2)=N1 [Varlitinib]"
test_target = "KHOS-NP"
experimental_result = 1.06

[[record]]
molecule = "CC[C@@H]1C(=O)N(C)c2cnc(Nc3ccc(C(=O)N[C@H]4CC[C@H](N5CCN(CC6CC6)CC5)CC4)cc3OC)nc2N1C(C)C [Volasertib]"
test_target = "KHOS-NP"
experimental_result = 1.09

[[record]]
molecule = "FC(F)(F)c1ccc(CNc2ccc(Cc3c[nH]c4ncc(Cl)cc34)cn2)cn1 [Pexidartinib]"
test_target = "KHOS-NP"
experimental_result = 1.07

[[record]]
molecule = "COc1cc(Nc2c(C#N)cnc3cc(OCCCN4CCN(C)CC4)c(OC)cc23)c(Cl)cc1Cl [Bosutinib]"
test_target = "KHOS-NP"
experimental_result = 1.12


---

# relative viability annotations
System: VA-ES-BJ
Assay notes: relative viability vs DMSO control (72 h) (fraction); higher = more viable cells
Measurement setup: 0.04115 µM
Readout: relative viability

[[record]]
structure_notation = "Cc1ccc(C(=O)OCc2ccc([C@@H](CN)C(=O)Nc3ccc4cnccc4c3)cc2)c(C)c1"
readout = "relative viability"
experimental_result = 0.991

[[record]]
structure_notation = "Cc1cccc(-c2[nH]c(CNc3ccccc3F)nc2-c2ccc3ncnn3c2)n1"
readout = "relative viability"
experimental_result = 1.04

[[record]]
structure_notation = "COc1cc(OC)cc(N(CCNC(C)C)c2ccc3ncc(-c4cnn(C)c4)nc3c2)c1"
readout = "relative viability"
experimental_result = 1.03

[[record]]
structure_notation = "C=CC(=O)Nc1cc(Nc2nccc(-c3cn(C)c4ccccc34)n2)c(OC)cc1N(C)CCN(C)C"
readout = "relative viability"
experimental_result = 1.02


---

System: KHOS-240S
Assay notes: relative viability vs DMSO control (72 h) (fraction); higher = more viable cells
Measurement setup: 1.111 µM
# relative viability annotations
Readout: relative viability

[[record]]
structure_notation = "CO[C@H]1C[C@@H]2CC[C@@H](C)[C@@](O)(O2)C(=O)C(=O)N2CCCC[C@H]2C(=O)O[C@H]([C@H](C)C[C@@H]2CC[C@@H](O)[C@H](OC)C2)CC(=O)[C@H](C)/C=C(\\C)[C@@H](O)[C@@H](OC)C(=O)[C@H](C)C[C@H](C)/C=C/C=C/C=C/1C"
test_target = "KHOS-240S"
readout = "relative viability"
experimental_result = 0.734

[[record]]
structure_notation = "COc1cc(OC)cc(N(CCNC(C)C)c2ccc3ncc(-c4cnn(C)c4)nc3c2)c1"
test_target = "KHOS-240S"
readout = "relative viability"
experimental_result = 0.643

[[record]]
structure_notation = "COc1cc2nccc(Oc3ccc(NC(=O)NC4CC4)c(Cl)c3)c2cc1C(N)=O"
test_target = "KHOS-240S"
readout = "relative viability"
experimental_result = 0.738

[[record]]
structure_notation = "Cc1ccc(C(=O)OCc2ccc([C@@H](CN)C(=O)Nc3ccc4cnccc4c3)cc2)c(C)c1"
test_target = "KHOS-240S"
readout = "relative viability"
experimental_result = 0.686

[[record]]
structure_notation = "Cc1ccc(NC(=O)c2ccc(CN3CCN(C)CC3)cc2)cc1Nc1nccc(-c2cccnc2)n1"
test_target = "KHOS-240S"
readout = "relative viability"
experimental_result = 0.895

[[record]]
structure_notation = "Cc1cn(-c2cc(NC(=O)c3ccc(C)c(Nc4nccc(-c5cccnc5)n4)c3)cc(C(F)(F)F)c2)cn1"
test_target = "KHOS-240S"
readout = "relative viability"
experimental_result = 0.907


---

# relative viability annotations
Tested on: A204
Assay notes: relative viability vs DMSO control (72 h) (fraction); higher = more viable cells
Measurement setup: 0.1235 µM
Readout: relative viability

[[record]]
structure_notation = "CCN(c1cc(-c2ccc(CN3CCOCC3)cc2)cc(C(=O)NCc2c(C)cc(C)[nH]c2=O)c1C)C1CCOCC1"
test_target = "A204"
experimental_result = 1.08

[[record]]
structure_notation = "Cc1ccc(C(=O)OCc2ccc([C@@H](CN)C(=O)Nc3ccc4cnccc4c3)cc2)c(C)c1"
test_target = "A204"
experimental_result = 0.841

[[record]]
structure_notation = "Cc1cn(-c2cc(NC(=O)c3ccc(C)c(Nc4nccc(-c5cnccn5)n4)c3)cc(C(F)(F)F)c2)cn1"
test_target = "A204"
experimental_result = 1.11

[[record]]
structure_notation = "CN1CCN(CCOc2cc(OC3CCOCC3)c3c(Nc4c(Cl)ccc5c4OCO5)ncnc3c2)CC1"
test_target = "A204"
experimental_result = 0.992

[[record]]
structure_notation = "CCN(CCCOc1ccc2c(Nc3cc(CC(=O)Nc4cccc(F)c4)[nH]n3)ncnc2c1)CCOP(=O)(O)O"
test_target = "A204"
experimental_result = 0.859

[[record]]
structure_notation = "NC(=O)c1cnc2[nH]ccc2c1N[C@@H]1[C@@H]2CC3C[C@H]1C[C@@](O)(C3)C2"
test_target = "A204"
experimental_result = 1.02

[[record]]
structure_notation = "COc1cc(Nc2c(C#N)cnc3cc(OCCCN4CCN(C)CC4)c(OC)cc23)c(Cl)cc1Cl"
test_target = "A204"
experimental_result = 1.23


---

# relative viability annotations
Tested on: SW684
Assay notes: relative viability vs DMSO control (72 h) (fraction); higher = more viable cells
Measurement setup: 0.00152 µM
Readout: relative viability

[[record]]
structure_notation = "CO[C@@H]1[C@H](N(C)C(=O)c2ccccc2)C[C@H]2O[C@]1(C)n1c3ccccc3c3c4c(c5c6ccccc6n2c5c31)C(=O)NC4"
experimental_result = 1.05

[[record]]
structure_notation = "C1=N/C2=N/c3ccc(OCCN4CCCC4)c(c3)COC/C=C/COCc3cccc(c3)C(=C1)N2"
experimental_result = 1.15

[[record]]
structure_notation = "Cc1cccc(-c2[nH]c(CNc3ccccc3F)nc2-c2ccc3ncnn3c2)n1"
experimental_result = 1.08

[[record]]
structure_notation = "N#Cc1ccnc(N2C(=O)CC[C@H]2C(=O)N(c2cncc(F)c2)[C@H](C(=O)NC2CC(F)(F)C2)c2ccccc2Cl)c1"
experimental_result = 1.08

[[record]]
structure_notation = "Cc1cn(-c2cc(NC(=O)c3ccc(C)c(Nc4nccc(-c5cccnc5)n4)c3)cc(C(F)(F)F)c2)cn1"
experimental_result = 1.09

[[record]]
structure_notation = "COc1cc2ncnc(Nc3cccc(Cl)c3F)c2cc1OC(=O)N1CCN(C)C[C@H]1C"
experimental_result = 1.16

[[record]]
structure_notation = "CCN(CCCOc1ccc2c(Nc3cc(CC(=O)Nc4cccc(F)c4)[nH]n3)ncnc2c1)CCOP(=O)(O)O"
experimental_result = 1.15


---

Tested on: SW872
Assay notes: relative viability vs DMSO control (72 h) (fraction); higher = more viable cells
Measurement setup: 10 µM
relative viability class ranges: lower band: < 0.6; central band: ≥ 0.6 and < 1; upper band: ≥ 1

[[record]]
structure_notation = "C#Cc1cccc(Nc2ncnc3cc(OCCOC)c(OCCOC)cc23)c1"
classification = "central band"

[[record]]
structure_notation = "Cc1c(F)cc(C(=O)NC2CC2)cc1-c1ccc(C(=O)NCC(C)(C)C)cn1"
classification = "upper band"

[[record]]
structure_notation = "CNC(=O)c1cc(Oc2ccc(NC(=O)Nc3ccc(Cl)c(C(F)(F)F)c3)cc2)ccn1"
classification = "lower band"

[[record]]
structure_notation = "C=CC(=O)Nc1cccc(Nc2nc(Nc3ccc(N4CCN(C(C)=O)CC4)cc3OC)ncc2C(F)(F)F)c1"
classification = "lower band"

[[record]]
structure_notation = "COc1cc2ncnc(Nc3cccc(Cl)c3F)c2cc1OC(=O)N1CCN(C)C[C@H]1C"
classification = "central band"

[[record]]
structure_notation = "N#CCC1(n2cc(-c3ncnc4[nH]ccc34)cn2)CN(C2CCN(C(=O)c3ccnc(C(F)(F)F)c3F)CC2)C1"
classification = "central band"

[[record]]
structure_notation = "COc1cc2nccc(Oc3ccc(NC(=O)NC4CC4)c(Cl)c3)c2cc1C(N)=O"
classification = "central band"

[[record]]
structure_notation = "N#Cc1ccnc(N2C(=O)CC[C@H]2C(=O)N(c2cncc(F)c2)[C@H](C(=O)NC2CC(F)(F)C2)c2ccccc2Cl)c1"
classification = "upper band"

[[record]]
structure_notation = "Cc1cn(-c2cc(NC(=O)c3ccc(C)c(Nc4nccc(-c5cnccn5)n4)c3)cc(C(F)(F)F)c2)cn1"
classification = "central band"

[[record]]
structure_notation = "COc1cc2ncnc(Nc3ccc(F)c(Cl)c3)c2cc1NC(=O)/C=C/CN1CCCCC1"
classification = "lower band"

